Assay Method Text: Drug uptake in C57/BL6 mouse cerebellum at 30 mg/kg, po after 24 hrs
Format: ADME, organism-based
Parameters: dose 30 mg/kg, route oral
Protocol Conditions: read-out: Drug uptake
Measured Parameter: concentration at 24 h (nM)
# value in nM; strip the unit string

What does the record list as concentration at 24 h for O=C(O)c1cncc(-c2ccc(N3CCC(Oc4cc(F)ccc4Br)CC3)nn2)c1 ? 5

---

Assay Method Text: Plasma concentration in C57/BL6 mouse at 30 mg/kg, po after 6 hrs
Type: ADME, organism-based
Set-up: dose 30 mg/kg, route oral
Measured Parameter: concentration at 6 h (nM)
Lab book: enter the figure in nM, no units written.

Need concentration at 6 h, item O=C(O)c1cncc(-c2ccc(N3CCC(Oc4cc(F)ccc4Br)CC3)nn2)c1 626

---

Tgt: Stearoyl-CoA desaturase (Homo sapiens)
Sequence (O00767 whole entry): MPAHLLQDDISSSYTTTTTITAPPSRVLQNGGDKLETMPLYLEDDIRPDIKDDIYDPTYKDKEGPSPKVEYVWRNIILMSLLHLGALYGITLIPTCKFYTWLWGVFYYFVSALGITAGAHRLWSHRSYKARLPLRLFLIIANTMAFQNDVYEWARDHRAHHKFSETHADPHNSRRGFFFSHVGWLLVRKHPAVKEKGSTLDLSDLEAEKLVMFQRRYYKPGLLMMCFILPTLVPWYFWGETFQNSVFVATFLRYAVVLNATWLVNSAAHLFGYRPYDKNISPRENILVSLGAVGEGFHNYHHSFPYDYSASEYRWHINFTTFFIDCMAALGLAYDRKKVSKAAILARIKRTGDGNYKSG
Assay Method Text: Inhibition of human SCD1 expressed in human HepG2 cells assessed as conversion of [14C]stearic acid to [14C]oleic acid
Type: cell-based
IC50: recorded values
Response body: numeric value in nM, unit text excluded.

Fill in: IC50 of O=C(O)c1cncc(-c2cnc(N3CCC(Oc4cc(F)ccc4Br)CC3)nc2)c1 is ___ 9420

Which IC50 value is on record for O=C(O)c1ccc(-c2ccc(N3CCC(Oc4ccccc4C(F)(F)F)CC3)nn2)cc1 ? 550

For the compound O=C(O)c1cncc(-c2ccc(N3CCC(Oc4ccccc4I)CC3)nn2)c1 , what IC50 is on record? 5080

Give the measured IC50 of O=C(O)Cc1cncc(-c2ccc(N3CCC(Oc4cc(F)ccc4Br)CC3)nn2)c1 . 780

// IC50 lookup, key: O=C(O)c1ccc(-c2ccc(N3CCC(Oc4cc(F)ccc4Br)CC3)nn2)nc1 128

---

Assay Method Text: AUC in C57/BL6 mouse plasma at 10 mg/kg, po and 2 mg/kg, iv
Assay type: ADME, organism-based
Measured Parameter: AUC

I am curious: what AUC value has been reported for O=C(O)c1cncc(-c2ccc(N3CCC(Oc4cc(F)ccc4Br)CC3)nn2)c1 ? 0.3 µM·h

---

Assay Method Text: Drug uptake in C57/BL6 mouse heart at 30 mg/kg, po after 24 hrs
Format: ADME, organism-based
Parameters: dose 30 mg/kg, route oral
Protocol Conditions: read-out: Drug uptake
Measured Parameter: concentration at 24 h (nM)
Respond numerically; units are nM and should not be typed.

Look at this compound and give its reported concentration at 24 h. O=C(O)c1cncc(-c2ccc(N3CCC(Oc4cc(F)ccc4Br)CC3)nn2)c1 32
